Numbers sourced from PubChem BioAssay (NCI).

Catalogue of growth inhibition readings, one per entry.
assay_comment: NCI Yeast Anticancer Drug Screen. Data for the wt1 strain (AID 149);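 also: 0% = growth of vehicle-treated wt1 cultures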
condition_description: S. cerevisiae wt1 strain (SPY 50644) growth inhibition; at 33.0 µM; hits give high values
The panel holds about 79,000 compounds, 15% with a hit somewhere; the sample as a whole holds those more often.
endpoint_name: growth inhibition (%)

>>> obs_value("c1ccc2c(c1)NC(NC1Nc3ccccc3N1)N2")
9
>>> obs_value("O=C(CCCN1CCC(O)(c2ccc(Cl)cc2)CC1)c1ccc(F)cc1")
23
>>> obs_value("Cc1ccc2ccc(O)cc2c1")
-11
>>> obs_value("O=C(O)c1ccccc1NC(=S)c1ccccc1")
-5
>>> obs_value("CC1CCN(CCC(=O)c2ccc(Cl)cc2)CC1")
7
>>> obs_value("O=[N+]([O-])C(=C(Sc1ccccc1)Sc1ccccc1)C(Cl)=C(Cl)Cl")
36
>>> obs_value("Cc1ccc(S(=O)(=O)NC(=O)NC2=NC(C)(C)N(c3ccc(Cl)c(Cl)c3)C(N)=N2)cc1")
-1
>>> obs_value("Cc1ccc(S(=O)(=O)NCCSS(=O)(=O)c2ccc(C)cc2)cc1")
99
>>> obs_value("CC1OCC2OC(C)OC(C3C4=C(CC(C)(C)CC4=O)OC4=C3C(=O)CC(C)(C)C4)C2O1 (stereo unspecified)")
24
>>> obs_value("COC(=O)C1=C(C(=O)OC)C2(C)C=CC1O2 (stereo unspecified)")
62
>>> obs_value("c1ccc(-c2nc3cccnc3s2)cc1")
-2
